pIC50: −log10 of the molar value.
// purified human Factor XIa (Homo sapiens, UniProt P03951) pIC50 records
property: pIC50

(A) COC(=O)Nc1ccc(-c2cnc(C(CC3CC3)c3ccc(-c4cc(Cl)ccc4-n4cncn4)c[n+]3[O-])[nH]2)cc1 (racemic) [Example 68]
(B) [O-][n+]1cc(-c2cc(Cl)ccc2-n2cnnn2)ccc1C(CC1CC1)c1ncc(-c2cccc(F)c2)[nH]1 (single isomer, unassigned) [Example 32]
(C) [O-][n+]1cc(-c2cc(Cl)ccc2-n2cnnn2)ccc1C(Cc1ccc(F)cc1)c1nc(-c2ccc(Cl)cc2)c[nH]1 (single isomer, unassigned) [Example 22]
Put the entries in order of pIC50, starting with the largest number. Sort the labels as requested; that list is your answer.
C, B, A
(C: 8.19, B: 7.83, A: 6.20)

----------
# test-target: purified human Factor XIa (Homo sapiens)
# Sequence (P03951 388-625 limits assumed): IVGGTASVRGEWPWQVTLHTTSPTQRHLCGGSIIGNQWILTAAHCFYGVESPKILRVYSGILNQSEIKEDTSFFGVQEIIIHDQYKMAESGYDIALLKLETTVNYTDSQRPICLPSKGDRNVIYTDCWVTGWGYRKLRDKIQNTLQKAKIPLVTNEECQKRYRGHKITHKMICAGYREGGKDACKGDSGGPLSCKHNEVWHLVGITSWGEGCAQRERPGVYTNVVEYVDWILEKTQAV
# Sequence (P03951 19-387 partner limits assumed): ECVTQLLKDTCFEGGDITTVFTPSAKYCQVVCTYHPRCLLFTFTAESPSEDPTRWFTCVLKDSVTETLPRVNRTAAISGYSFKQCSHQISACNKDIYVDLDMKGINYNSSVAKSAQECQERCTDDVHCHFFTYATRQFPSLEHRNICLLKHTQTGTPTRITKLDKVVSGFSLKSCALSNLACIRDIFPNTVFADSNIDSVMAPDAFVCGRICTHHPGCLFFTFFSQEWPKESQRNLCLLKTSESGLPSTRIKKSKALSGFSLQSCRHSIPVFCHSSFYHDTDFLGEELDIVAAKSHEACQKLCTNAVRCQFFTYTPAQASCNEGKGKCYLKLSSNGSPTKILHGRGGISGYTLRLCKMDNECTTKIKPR
pIC50: −log10 of the molar value.
property: pIC50

Some entries whose results are on file:
Lab note: need pIC50 with purified human Factor XIa (Homo sapiens) for entry [O-][n+]1cc(-c2cc(Cl)ccc2-n2cnnn2)ccc1C(Cc1ccc(F)cc1)c1nc(-c2ccc(F)cc2)c[nH]1 (single isomer, unassigned) [Example 16] , please look it up.
8.42

Lab note: need pIC50 with purified human Factor XIa (Homo sapiens) for entry Nc1ccc(-c2cnc(C(CC3CC3)c3ccc(-c4cc(Cl)ccc4-n4cnnn4)c[n+]3[O-])[nH]2)c(Cl)n1 (single isomer, unassigned) [Example 47] , please look it up.
9.49

Lab note: need pIC50 with purified human Factor XIa (Homo sapiens) for entry COC(=O)Nc1ccc(-c2cnc(C(CC3CC3)c3ccc(-c4cc(Cl)ccc4-c4csnn4)c[n+]3[O-])[nH]2)cc1 (racemic) [Example 72] , please look it up.
7.29

Lab note: need pIC50 with purified human Factor XIa (Homo sapiens) for entry O=C(O)c1scc(-c2c[nH]c(C(Cc3ccccc3)c3ccc(-c4cc(Cl)ccc4-n4cnnn4)c[n+]3[O-])n2)c1F (single isomer, unassigned) [Example 9] , please look it up.
9.72

(1) COC(=O)Nc1ccc(-c2[nH]c(C(CC3CC3)c3ccc(-c4cc(Cl)ccc4-n4cnnn4)c[n+]3[O-])nc2C)cc1 (single isomer, unassigned) [Example 76]
(2) O=C(O)c1cccc(-c2c[nH]c(C(CC3CC3)c3ccc(-c4cc(Cl)ccc4-n4cnnn4)c[n+]3[O-])n2)c1 (single isomer, unassigned) [Example 54]
pIC50 comparison. Which is larger, 1 or 2 ? In your reply, give the label of the chosen option.
1
(1: 7.43, 2: 7.15)

----------
# test-target: purified Human plasma kallikrein (Homo sapiens)
# Construct: yields a heavy chain (371 amino acids) and a light chain (248 amino acids)
# Sequence (P03952 391-638 limits assumed): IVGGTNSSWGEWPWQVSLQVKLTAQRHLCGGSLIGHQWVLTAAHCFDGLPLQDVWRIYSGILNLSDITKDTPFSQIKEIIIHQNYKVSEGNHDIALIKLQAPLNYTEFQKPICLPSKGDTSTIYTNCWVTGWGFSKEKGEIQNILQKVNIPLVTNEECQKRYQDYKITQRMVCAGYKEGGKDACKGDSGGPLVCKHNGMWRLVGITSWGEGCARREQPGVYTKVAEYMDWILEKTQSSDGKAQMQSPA
# Sequence (P03952 20-390 partner limits assumed): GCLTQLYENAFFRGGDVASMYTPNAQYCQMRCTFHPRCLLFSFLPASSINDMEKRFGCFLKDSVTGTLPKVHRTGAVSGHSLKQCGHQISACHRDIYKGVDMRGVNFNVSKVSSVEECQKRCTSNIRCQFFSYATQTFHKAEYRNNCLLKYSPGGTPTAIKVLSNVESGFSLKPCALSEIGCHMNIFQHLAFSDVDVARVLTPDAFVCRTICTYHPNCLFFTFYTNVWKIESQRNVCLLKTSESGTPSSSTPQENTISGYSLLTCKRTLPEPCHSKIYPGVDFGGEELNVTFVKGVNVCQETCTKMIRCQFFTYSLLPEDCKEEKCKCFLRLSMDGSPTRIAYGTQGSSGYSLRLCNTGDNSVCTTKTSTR
# measurement-protocol: Kallikrein Assay
# condition-notes: Plasma Kallekrein IC50; fluorogenic substrate Acetyl-K-P-R-AFC, 0.5 nM enzyme, pH 7.4; read-out: PK IC50
pIC50: −log10 of the molar value.
property: pIC50

Some entries whose results are on file:
# input compound: COC(=O)Nc1ccc(-c2[nH]c(C(CC3CC3)c3ccc(-c4cc(Cl)ccc4-n4cnnn4)c[n+]3[O-])nc2C)cc1 (single isomer, unassigned) [Example 76] ; wanted: its pIC50
6.10

# input compound: O=C(O)c1scc(-c2c[nH]c(C(Cc3ccccc3)c3ccc(-c4cc(Cl)ccc4-n4cnnn4)c[n+]3[O-])n2)c1F (single isomer, unassigned) [Example 10] ; wanted: its pIC50
6.93

# input compound: N#Cc1ccc(-c2cnc(C(CC3CC3)c3ccc(-c4cc(Cl)ccc4-n4cnnn4)c[n+]3[O-])[nH]2)cc1 (single isomer, unassigned) ; wanted: its pIC50
6.65

# input compound: O=C(O)c1cccc(-c2cnc(C(CC3CC3)c3ccc(-c4cc(Cl)ccc4-n4cnnn4)c[n+]3[O-])[nH]2)c1F (single isomer, unassigned) ; wanted: its pIC50
7.10

# input compound: Nc1ccc(-c2cnc(C(CC3CC3)c3ccc(-c4cc(Cl)ccc4-n4cnnn4)c[n+]3[O-])[nH]2)c(Cl)n1 (single isomer, unassigned) ; wanted: its pIC50
7.10

(P) O=C(O)c1scc(-c2cnc(C(CC3CC3)c3ccc(-c4cc(Cl)ccc4-n4cnnn4)c[n+]3[O-])[nH]2)c1F (single isomer, unassigned) [Example 57]
(Q) COC(=O)Nc1ccc(-c2[nH]c(C(CC3CC3)c3ccc(-c4cc(Cl)ccc4-n4cnnn4)c[n+]3[O-])nc2Cl)cc1 (single isomer, unassigned)
Hi, I'm comparing two records. Which one has the lower pIC50, P or Q ? In your reply, give the label of the chosen option.
P
(P: 7.24, Q: 7.62)

(a) O=C(O)c1cccc(-c2c[nH]c(C(CC3CC3)c3ccc(-c4cc(Cl)ccc4-n4cnnn4)c[n+]3[O-])n2)c1 (single isomer, unassigned)
(b) COC(=O)Nc1ccc(-c2cnc(C(CC3CC3)c3ccc(-c4cc(Cl)ccc4-c4cnco4)c[n+]3[O-])[nH]2)cc1 (single isomer, unassigned)
(c) COC(=O)Nc1ccc(-c2c[nH]c(C(CC3CC3)c3ccc(-c4c(-n5cnnn5)ccc(Cl)c4F)c[n+]3[O-])n2)cc1 (single isomer, unassigned) [Example 64]
(d) N#Cc1ccc(-c2c[nH]c(C(Cc3ccc(F)cc3)c3ccc(-c4cc(Cl)ccc4-n4cnnn4)c[n+]3[O-])n2)cc1 (single isomer, unassigned)
Sort by pIC50, descending. Sort the labels as requested; that list is your answer.
c, d, a, b
(c: 8.25, d: 7.54, a: 7.21, b: 6.45)

(A) N#Cc1cccc(-c2cnc(C(CC3CC3)c3ccc(-c4cc(Cl)ccc4-n4cnnn4)c[n+]3[O-])[nH]2)c1 (single isomer, unassigned)
(B) O=C(O)c1scc(-c2cnc(C(CC3CC3)c3ccc(-c4cc(Cl)ccc4-n4cnnn4)c[n+]3[O-])[nH]2)c1F (single isomer, unassigned) [Example 58]
pIC50 comparison. Which is larger, A or B ? In your reply, give the label of the chosen option.
A
(A: 6.42, B: 5.98)

(P) COC(=O)Nc1ccc(-c2c[nH]c(C(CC3CC3)c3ccc(-c4c(-n5cnnn5)ccc(Cl)c4F)c[n+]3[O-])n2)cc1 (single isomer, unassigned) [Example 63]
(Q) O=C(O)c1scc(-c2c[nH]c(C(Cc3ccccc3)c3ccc(-c4cc(Cl)ccc4-n4cnnn4)c[n+]3[O-])n2)c1F (single isomer, unassigned) [Example 9]
(R) COC(=O)Nc1ccc(-c2cnc([C@@H](Cc3ccccc3)c3ccc(-c4c(-n5cnnn5)ccc(Cl)c4F)c[n+]3[O-])[nH]2)cc1
(S) COC(=O)Nc1ccc(-c2cnc([C@H](Cc3ccccc3)c3ccc(-c4cc(Cl)ccc4-c4cnco4)c[n+]3[O-])[nH]2)cc1
Rank the items in ascending order with respect to pIC50. Sort the labels as requested; that list is your answer.
P, R, S, Q

(I) COC(=O)Nc1ccc(-c2cnc(C(CC3CC3)c3ccc(-c4cc(Cl)ccc4-n4cnnn4)c[n+]3[O-])[nH]2)cc1 (single isomer, unassigned) [Example 27]
(II) [O-][n+]1cc(-c2cc(Cl)ccc2-n2cnnn2)ccc1C(Cc1ccc(F)cc1)c1nc(-c2ccc(F)cc2)c[nH]1 (single isomer, unassigned) [Example 16]
(III) COC(=O)Nc1ccc(-c2cnc(C(CC3CC3)c3ccc(-c4cc(Cl)ccc4-n4cnnn4)c[n+]3[O-])[nH]2)c(C)c1 (single isomer, unassigned) [Example 34]
(IV) [O-][n+]1cc(-c2cc(Cl)ccc2-n2cnnn2)ccc1C(Cc1ccccc1)c1nc(-c2cccc(F)c2)c[nH]1 (single isomer, unassigned) [Example 4]
Sort by pIC50, descending. Sort the labels as requested; that list is your answer.
II, III, I, IV

----------
// purified human Factor XIa (Homo sapiens, UniProt P03951) IC50 records
property: IC50 (nM)

# input compound: O=C(O)c1cccc(-c2cnc(C(CC3CC3)c3ccc(-c4cc(Cl)ccc4-n4cnnn4)c[n+]3[O-])[nH]2)c1F (single isomer, unassigned) [Example 52] ; wanted: its IC50
204

(A) [O-][n+]1cc(-c2cc(Cl)ccc2-n2cnnn2)ccc1C(Cc1ccc(F)cc1)c1nc(-c2ccc(Cl)cc2)c[nH]1 (single isomer, unassigned) [Example 21]
(B) COC(=O)Nc1ccc(-c2cnc(C(CC3CC3)c3ccc(-c4cc(Cl)ccc4-n4cccn4)c[n+]3[O-])[nH]2)cc1 (racemic) [Example 73]
(C) COC(=O)Nc1ccc(-c2cnc(C(CC3CC3)c3ccc(-c4cc(Cl)ccc4-n4cc(Cl)nn4)c[n+]3[O-])[nH]2)cc1 (racemic) [Example 67]
(D) COC(=O)Nc1ccc(-c2c[nH]c(C(Cc3ccc(F)cc3)c3ccc(-c4c(C(F)F)ccc(Cl)c4F)c[n+]3[O-])n2)cc1 (racemic) [Example 13]
(E) Nc1ccc(-c2c[nH]c(C(CC3CC3)c3ccc(-c4cc(Cl)ccc4-n4cnnn4)c[n+]3[O-])n2)cn1 (single isomer, unassigned) [Example 49]
Sort by IC50, descending. Sort the labels as requested; that list is your answer.
B, A, E, D, C
(B: 1000 nM, A: 128 nM, E: 19.5 nM, D: 11.3 nM, C: 6.51 nM)

Measured values drawn from patent US9868727B2 for this set.
